Measured inhibition at 10 µM, listed per entry.
target entity: PI-3 kinase γ (Homo sapiens)
protocol details: PI3Kγ inhibitory activity, PI3-kinase HTRF assay (inhibition ratio)
Format: biochemical
experimental parameters: 0.5 h; compound at 10 μmol/L

Examples with their reported inhibition at 10 µM follow.
>>> print(df.to_string())
                  compound_structure_string                 target_entity  reported
0  COc1cc(N2CCc3nc(NC(=O)NCCC(=O)N4CCCC4(C)C)sc3C2)nc(OC)n1  PI-3 kinase γ (Homo sapiens)     ≥ 95%
1  CN(C)C(=O)Nc1cc2n(n1)CCN2c1ccc2c(c1)CCN(C)C2=O  PI-3 kinase γ (Homo sapiens)     ≥ 95%

Requested field: inhibition at 10 µM. Item: CN1CCc2cc(N3CCn4nc(NC(=O)c5cccc(C(=O)OC(C)(C)C)c5)cc43)ccc2C1=O
≥ 95%

Requested field: inhibition at 10 µM. Item: CC(C)NC(=O)c1ccc(C(=O)Nc2cc3n(n2)CCN3c2ccc3c(c2)CCN(C)C3=O)s1
≥ 95%

Requested field: inhibition at 10 µM. Item: CN1CCc2cc(N3CCn4nc(NC(=O)c5cccc(C(=O)O)c5)cc43)ccc2C1=O
≥ 95%

###

target entity: PI-3 kinase γ (Homo sapiens, UniProt P48736)
Sequence (P48736 whole entry): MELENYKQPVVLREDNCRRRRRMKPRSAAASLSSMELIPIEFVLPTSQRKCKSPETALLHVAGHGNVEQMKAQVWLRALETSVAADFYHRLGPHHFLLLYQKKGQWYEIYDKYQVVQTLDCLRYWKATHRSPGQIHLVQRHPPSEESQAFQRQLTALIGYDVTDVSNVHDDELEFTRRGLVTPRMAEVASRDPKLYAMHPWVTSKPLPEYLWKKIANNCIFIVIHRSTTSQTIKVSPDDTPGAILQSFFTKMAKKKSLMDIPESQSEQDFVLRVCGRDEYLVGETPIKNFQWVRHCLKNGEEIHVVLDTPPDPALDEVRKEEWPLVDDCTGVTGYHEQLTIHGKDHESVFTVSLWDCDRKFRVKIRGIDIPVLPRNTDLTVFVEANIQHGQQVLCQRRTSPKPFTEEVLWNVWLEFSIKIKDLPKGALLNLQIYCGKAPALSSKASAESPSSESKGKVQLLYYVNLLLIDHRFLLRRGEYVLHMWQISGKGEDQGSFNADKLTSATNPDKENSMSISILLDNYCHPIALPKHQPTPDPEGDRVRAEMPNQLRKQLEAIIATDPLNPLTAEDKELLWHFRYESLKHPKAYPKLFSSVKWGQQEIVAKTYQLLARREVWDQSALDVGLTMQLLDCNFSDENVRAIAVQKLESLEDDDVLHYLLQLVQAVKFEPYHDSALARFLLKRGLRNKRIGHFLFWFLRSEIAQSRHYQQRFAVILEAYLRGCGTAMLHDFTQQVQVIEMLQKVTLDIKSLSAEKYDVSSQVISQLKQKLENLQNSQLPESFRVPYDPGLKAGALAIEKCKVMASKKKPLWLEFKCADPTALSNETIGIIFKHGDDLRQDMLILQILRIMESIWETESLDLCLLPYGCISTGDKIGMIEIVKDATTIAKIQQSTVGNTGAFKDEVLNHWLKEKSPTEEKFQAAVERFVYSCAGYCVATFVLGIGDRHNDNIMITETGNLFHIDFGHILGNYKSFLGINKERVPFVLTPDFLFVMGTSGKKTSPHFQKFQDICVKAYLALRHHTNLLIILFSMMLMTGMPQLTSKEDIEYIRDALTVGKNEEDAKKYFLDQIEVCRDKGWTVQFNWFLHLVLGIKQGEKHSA
protocol details: PI3Kγ inhibitory activity, PI3-kinase HTRF assay (inhibition ratio)
Assay type: biochemical
experimental parameters: 0.5 h; compound at 10 μmol/L
assay endpoint: inhibition at 10 µM

Examples with their reported inhibition at 10 µM follow.
In [3]: df
Out[3]:
                  compound_structure_string                             target_entity       assay_endpoint  reported
0  CN1CCc2cc(N3CCn4nc(NC(=O)c5ccncc5)cc43)ccc2C1=O  PI-3 kinase γ (Homo sapiens, UniProt P48736)  inhibition at 10 µM     ≥ 95%
1  COc1cc(N2CCc3nc(NC(=O)NCCC(=O)NC(C)C)sc3C2)nc(OC)n1  PI-3 kinase γ (Homo sapiens, UniProt P48736)  inhibition at 10 µM     ≥ 95%

Lab note: need inhibition at 10 µM for CC(=O)Nc1cc2n(n1)CCN2c1ccc2c(c1)CCC(=O)N2 on PI-3 kinase γ (Homo sapiens, UniProt P48736), anyone have it?
≥ 95%

###

protocol details: Metabolic stability test;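 further: 100% equals the compound amount at 0 min reaction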
Format: in vitro ADME
experimental parameters: human liver microsome 0.5 mg protein/mL, 1 mmol/L NADPH, 37° C.
Experimental: After a subject compound was reacted for a certain time using a pooled human liver microsome commercially available, a reacted sample and an unreacted sample are compared to calculate a survival ratio, and then the degree of metabolism in the liver was evaluated. […]
Measured percentage of the test compound remained after reacting for 30 minutes, listed per entry.
Kindly answer with a numeric value in %, unit omitted.

Examples with their reported percentage of the test compound remained after reacting for 30 minutes follow.
In [3]: df
Out[3]:
                  compound_structure_string  reported
0    COc1nc(OC)nc(N2CCc3nc(NC(C)=O)sc3C2)n1        99
1  CNC(=O)Nc1cc2n(n1)CCN2c1cc(Br)cc(C(=O)Nc2cccc(C(=O)O)c2)c1      98.9
2  COc1cc(N2CCc3nc(NC(=O)NCCC(=O)O)sc3C2)nc(OC)n1.Cl.Cl      92.8
3      CNC(=O)Nc1cc2n(n1)CCN2c1ccc2cnccc2c1      90.5
4  CN1CCc2cc(N3CCn4nc(NC(=O)c5cnco5)cc43)ccc2C1=O      94.5

Requested field: percentage of the test compound remained after reacting for 30 minutes. Item: CC(C)NC(=O)c1ccc(C(=O)Nc2cc3n(n2)CCN3c2ccc3c(c2)CCN(C)C3=O)s1
92.9

Requested field: percentage of the test compound remained after reacting for 30 minutes. Item: COc1cc(N2CCc3nc(NC(=O)NCC(=O)O)sc3C2)nc(OC)n1
87.2

Requested field: percentage of the test compound remained after reacting for 30 minutes. Item: CNC(=O)Nc1nc2c(s1)CN(c1cc(Cl)nc(N)n1)CC2
98.3

Requested field: percentage of the test compound remained after reacting for 30 minutes. Item: CC(=O)Nc1cc2n(n1)CCN2c1ccc2c(c1)CCC(=O)N2C
98.3

Requested field: percentage of the test compound remained after reacting for 30 minutes. Item: CN1CCc2cc(N3CCn4nc(NC(=O)c5ccco5)cc43)ccc2C1=O
88.4

Requested field: percentage of the test compound remained after reacting for 30 minutes. Item: CN(C)C(=O)CCC(=O)Nc1cc2n(n1)CCN2c1cccc(Cl)c1
98.3

Requested field: percentage of the test compound remained after reacting for 30 minutes. Item: CN1CCc2cc(N3CCn4nc(NC(=O)c5cc(O)no5)cc43)ccc2C1=O
96.7

Requested field: percentage of the test compound remained after reacting for 30 minutes. Item: COc1cc(N2CCc3nc(NC(=O)NCc4cc(=O)[nH]o4)sc3C2)nc(OC)n1
99.7

Requested field: percentage of the test compound remained after reacting for 30 minutes. Item: COc1cc(N2CCc3nc(NC(=O)NCCC(=O)N4CCC[C@H]4C(=O)O)sc3C2)nc(OC)n1
90.1

Requested field: percentage of the test compound remained after reacting for 30 minutes. Item: CC(=O)Nc1nc2c(s1)CN(c1ccccc1)CC2
87.9

Requested field: percentage of the test compound remained after reacting for 30 minutes. Item: CC(=O)Nc1cc2n(n1)CCN2c1ccc2c(c1)CCN(C)C2=O
94.9

Requested field: percentage of the test compound remained after reacting for 30 minutes. Item: CNC(=O)Nc1cc2n(n1)CCN2c1cc(C(=O)N2CCOCC2)cc(-c2ccc(N)nc2)c1
98.6

Requested field: percentage of the test compound remained after reacting for 30 minutes. Item: CNC(=O)Nc1cc2n(n1)CCN2c1ccc(S(C)(=O)=O)cc1
93.6

Requested field: percentage of the test compound remained after reacting for 30 minutes. Item: CN1CCc2cc(N3CCn4nc(NC(=O)c5ccc(C(=O)NCC#N)s5)cc43)ccc2C1=O
92.2
